System: LOK (Homo sapiens (Human), UniProt O94804)
Sequence (O94804 whole entry): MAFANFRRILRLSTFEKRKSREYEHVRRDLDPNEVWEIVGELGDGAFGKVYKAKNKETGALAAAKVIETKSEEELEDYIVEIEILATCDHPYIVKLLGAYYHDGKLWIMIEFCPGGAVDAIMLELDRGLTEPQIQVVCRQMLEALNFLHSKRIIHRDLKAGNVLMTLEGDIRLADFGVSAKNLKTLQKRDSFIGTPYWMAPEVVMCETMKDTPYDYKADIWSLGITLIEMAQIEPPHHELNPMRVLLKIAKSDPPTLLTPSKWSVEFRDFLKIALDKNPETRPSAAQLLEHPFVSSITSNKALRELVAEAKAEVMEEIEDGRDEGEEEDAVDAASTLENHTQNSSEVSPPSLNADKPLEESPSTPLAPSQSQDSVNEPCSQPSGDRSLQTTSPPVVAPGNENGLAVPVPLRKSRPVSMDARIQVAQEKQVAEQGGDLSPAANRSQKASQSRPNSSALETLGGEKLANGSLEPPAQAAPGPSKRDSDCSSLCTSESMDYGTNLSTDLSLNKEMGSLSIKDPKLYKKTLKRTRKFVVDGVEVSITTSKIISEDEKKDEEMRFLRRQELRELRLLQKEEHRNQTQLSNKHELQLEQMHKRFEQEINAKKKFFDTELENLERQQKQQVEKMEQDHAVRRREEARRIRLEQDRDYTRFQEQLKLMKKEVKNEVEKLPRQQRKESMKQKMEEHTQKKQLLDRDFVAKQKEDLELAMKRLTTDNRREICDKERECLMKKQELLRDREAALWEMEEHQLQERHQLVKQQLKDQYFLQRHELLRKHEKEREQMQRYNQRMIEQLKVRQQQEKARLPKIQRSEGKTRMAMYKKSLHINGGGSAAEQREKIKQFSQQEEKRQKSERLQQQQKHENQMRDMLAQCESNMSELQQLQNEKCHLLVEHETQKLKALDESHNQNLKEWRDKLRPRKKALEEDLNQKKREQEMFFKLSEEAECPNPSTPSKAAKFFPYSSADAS
Test: KinaseProfiler off-target kinase profiling
Format: biochemical
Condition Notes: 10 μM, ATP near Km
Measured Parameter: Avg. POC (POC)

• Cc1c(-c2ccc(=O)n(C)c2)nn(-c2ccccc2)c1NC(=O)NC1CN(CC(F)(F)F)Cc2ccccc21 (stereo not shown) = 109
• Cc1c(-c2cnn(C)c2)nn(-c2ccccc2)c1NC(=O)NC1CCOc2cc(F)ccc21 (stereo not shown) = 116
• COCc1ccc2c(c1)C(NC(=O)Nc1c(C)c(-c3cnn(C)c3)nn1-c1ccccc1)COC2 (stereo not shown) = 103.5
• Cc1c(-c2cnn(C)c2)nn(-c2ccccc2)c1NC(=O)N[C@H]1CCCc2ccccc21 = 109.5
